# credit: patent US20070196376A1

# target_system: human insulin-like growth factor-I (IGF-I) (human, UniProt P05019 49-118)
# assay_details: cell-based or functional assay
Can you tell me Max % Inhibition (333.3 nM), n = 1, IGF-I pTYR, BxPC3 cells for the items I'm about to list?
Numbers only, in %.

Please look at the items below and tell me Max % Inhibition (333.3 nM), n = 1, IGF-I pTYR, BxPC3 cells for each one, in order.
1. mAb 7.251.3 (antibody, V domains shown, Fully human XenoMouse hybridoma mAb, lambda light chain (V1-13/JL2); also called ATCC PTA-7422) VH: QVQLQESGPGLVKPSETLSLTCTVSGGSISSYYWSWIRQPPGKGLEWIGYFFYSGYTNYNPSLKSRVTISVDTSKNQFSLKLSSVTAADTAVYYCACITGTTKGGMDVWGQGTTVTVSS VL: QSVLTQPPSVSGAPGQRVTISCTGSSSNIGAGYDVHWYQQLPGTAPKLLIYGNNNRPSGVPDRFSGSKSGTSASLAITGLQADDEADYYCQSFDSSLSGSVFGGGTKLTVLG
2. mAb 7.159.2 (antibody, V domains shown, Fully human XenoMouse hybridoma mAb, lambda light chain (V1-19/JL2); Sister clones 7.159.1 and 7.159.2 are said to be identical; also called 7.159.1; 7_159_1) VH: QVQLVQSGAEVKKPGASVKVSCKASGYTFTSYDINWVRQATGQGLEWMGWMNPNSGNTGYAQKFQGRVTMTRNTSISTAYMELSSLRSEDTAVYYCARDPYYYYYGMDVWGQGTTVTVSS VL: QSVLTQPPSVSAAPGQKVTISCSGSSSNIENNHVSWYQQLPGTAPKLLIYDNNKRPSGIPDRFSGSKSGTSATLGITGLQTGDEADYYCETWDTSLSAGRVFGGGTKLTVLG
3. mAb 7.158.2 (antibody, V domains shown, Kappa light chain (L5/JK3); also called 7.158.1; 7_158_1) VH: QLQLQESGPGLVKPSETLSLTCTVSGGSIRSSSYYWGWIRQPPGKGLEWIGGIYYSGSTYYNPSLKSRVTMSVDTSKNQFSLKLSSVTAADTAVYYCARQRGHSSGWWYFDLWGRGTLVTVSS VL: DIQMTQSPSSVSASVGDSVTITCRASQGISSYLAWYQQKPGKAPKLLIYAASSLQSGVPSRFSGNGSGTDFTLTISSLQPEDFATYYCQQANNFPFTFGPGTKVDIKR

**Result**
1. 95.7
2. 100
3. 92.9
